experiment: chemical genetic growth profiling, strain panel (AID 1159580);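 further: tested at 20 µM; growth read once vehicle control cultures reached saturation at 30 °C; 1 = growth at the plate median or of vehicle wells; lower values mean less growth of the strain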; details: S. cerevisiae deletion strains, growth OD, locus YNR049C, strain mso1
Out of some 5,500 compounds screened, about 2,000 (36%) were called active. Inconclusive results (about 18%) are left out. No stated cut-off is given here; in the data, active means normalized growth mostly below about 0.91 (no sharp cut-off); inconclusive means no clear call, values can overlap the other calls; inactive means mostly above about 0.92. This is one part of the list.
Outcomes: Y (active), N (inactive)

compound=Cc1cc(O)c(C=O)c(O)c1C(=O)O category=N
compound=Cc1[nH]c(C)c(Cl)c(=O)c1Cl category=N
compound=CCCCCCCCCCCCCCCC[N+](C)(C)C category=Y
compound=CN1CCC(=C2c3ccccc3CCc3sccc32)CC1 category=N
compound=CN(C)CC/C=C1\c2ccccc2Sc2ccc(Cl)cc21 category=N
compound="C[C@H]1CC2C([C@@H](O)C[C@@]3(C)C2CC[C@]3(O)C(=O)CO)[C@@]2(C)C=CC(=O)C=C12 (stereo partly drawn)" category=N
compound=CCOC(=O)[C@H](CCc1ccccc1)N[C@H]1CCc2ccccc2N(CC(=O)O)C1=O category=N
compound=Cc1cc(O)c(C)c(O)c1C(=O)O category=N
compound=CCCCCCNC(=O)n1cc(F)c(=O)[nH]c1=O category=N
compound="CCN(CCO)CCCC(C)Nc1ccnc2cc(Cl)ccc12 (stereo not drawn)" category=N
compound=CCCCNc1cc(C(=O)O)cc(S(N)(=O)=O)c1Oc1ccccc1 category=N
compound=CC(C)c1c(C(=O)c2ccccc2)c(-c2ccccc2)c(-c2ccc(F)cc2)n1CC[C@@H](O)C[C@@H](O)CC(=O)O category=N
compound=CCOC(=O)c1c(C)c(Cl)c(O)c(Cl)c1O category=Y
compound="C=C1C2CC[C@H]3[C@]4(C)C[C@H](OC5OC(CO)C(OS(=O)(=O)O)C(OS(=O)(=O)O)C5OC(=O)CC(C)C)C[C@@H](C(=O)O)[C@H]4CC[C@]3(C2)[C@H]1O (stereo partly drawn)" category=N
compound=CCN(CC)CCNC(=O)c1cc(Br)c(N)cc1OC category=N
compound=CC(=O)O[C@H]1[C@@H]2[C@@H](OC(=O)Cc3ccccc3)[C@@H](C)C[C@]2(OC(C)=O)C(=O)/C(C)=C/[C@H]2[C@H](CC[C@@]13CO3)C2(C)C category=N
compound=CN1CCC(=C2c3ccccc3CC(=O)c3sccc32)CC1 category=N
compound="ClC1=C(Cl)C2(Cl)C3C4C=CC(C4)C3C1(Cl)C2(Cl)Cl (stereo not drawn)" category=N
compound="NCC1CCC(C(=O)O)CC1 (stereo not drawn)" category=N
compound="C=C(C)C1CNC(C(=O)O)C1CC(=O)O (stereo not drawn)" category=N
compound=CC1(C)OC(=O)NC1=O category=N
compound=Oc1cc(Cl)ccc1Oc1ccc(Cl)cc1Cl category=Y
compound="CCN(CC)CCCC(C)Nc1ccnc2cc(Cl)ccc12 (stereo not drawn)" category=N

###

experiment: chemical genetic growth profiling, strain panel (AID 1159580);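 further: tested at 20 µM; growth read once vehicle control cultures reached saturation at 30 °C; 1 = growth at the plate median or of vehicle wells; lower values mean less growth of the strain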; conditions: S. cerevisiae deletion strains, growth OD, locus YPL051W, strain arl3
Out of some 5,500 compounds screened, about 2,000 (36%) were called active. Inconclusive results (about 18%) are left out. Cut-off read from the data, not from the text of the source: active = normalized growth mostly below about 0.91 (no sharp cut-off); inconclusive = no clear call, values can overlap the other calls; inactive = mostly above about 0.92. The list shows a part of the results.
Outcome codes: true (1) for active, false (0) for inactive

compound=COc1cc(O)c(C(=O)/C=C/c2ccccc2)c(OC)c1 category="true (1)"
compound=COC1=CC(=O)C[C@@H](C)[C@]12Oc1c(Cl)c(OC)cc(OC)c1C2=O category="false (0)"
compound=CC1(C)OC(=O)NC1=O category="false (0)"
compound=CN(C)c1ccc(C(=C2C=CC(=[N+](C)C)C=C2)c2ccc(N(C)C)cc2)cc1 category="true (1)"
compound=CN(C)C(=S)SSC(=S)N(C)C category="true (1)"
compound=CCCCCCCCCCCCCCCC[N+](C)(C)C category="true (1)"
compound="Cc1cccc(C)c1OCC(C)N (stereo not drawn)" category="false (0)"
compound="CC1=C(CC(=O)O)c2cc(F)ccc2/C1=C\\c1ccc(S(C)=O)cc1 (stereo not drawn)" category="false (0)"
compound=CC(C)(O)[C@@H]1[C@H]2OC(=O)[C@@H]1[C@]1(O)C[C@H]3O[C@]34C(=O)O[C@H]2[C@]14C category="false (0)"
compound=COc1ccc2c(c1OC)C(=O)O[C@H]2[C@H]1c2cc3c(cc2CCN1C)OCO3 category="false (0)"
compound=COc1cc(NS(=O)(=O)c2ccc(N)cc2)nc(OC)n1 category="false (0)"
compound="CC1CC2C3CCC4=CC(=O)C=C[C@]4(C)[C@@]3(F)[C@@H](O)C[C@]2(C)[C@@]1(O)C(=O)CO (stereo partly drawn)" category="false (0)"
compound=COc1cc(O)c(C(=O)/C=C/c2ccc(O)c(OC)c2)c(OC)c1 category="false (0)"
compound="COCCc1ccc(OCC(O)CNC(C)C)cc1 (stereo not drawn)" category="false (0)"
compound="O=C(O)C1(O)C[C@@H](O)C(O)[C@H](O)C1 (stereo partly drawn)" category="false (0)"
compound=COc1ccc2c(c1OC)C(=O)O[C@@H]2[C@H]1c2cc3c(cc2CCN1C)OCO3 category="false (0)"
compound=CCCCNc1cc(C(=O)O)cc(S(N)(=O)=O)c1Oc1ccccc1 category="false (0)"
compound=O=C1C=CC(=C(c2ccc(O)cc2)c2ccc(O)cc2)C=C1 category="false (0)"
compound="CC(=O)OCC(=O)[C@H]1CCC2C3CCC4=CC(=O)CC[C@]4(C)C3CC[C@@]21C (stereo partly drawn)" category="false (0)"
compound="OCCN1C[C@@H](O)[C@@H](O)C(O)C1CO (stereo partly drawn)" category="false (0)"
compound=CC1=C(C/C=C(\C)CCC[C@H](C)CCC[C@H](C)CCCC(C)C)C(=O)c2ccccc2C1=O category="false (0)"
compound="ClC1=C(Cl)C2(Cl)C3C4C=CC(C4)C3C1(Cl)C2(Cl)Cl (stereo not drawn)" category="false (0)"
compound=Oc1cc(Cl)ccc1Oc1ccc(Cl)cc1Cl category="true (1)"

FYI, the data here is from PubChem BioAssay AID1159580.
